// data source = the supplement of paper PMC12636428

Test system: Saccharomyces cerevisiae
Experiment: transcriptional activation domain activity (GFP:mCherry ratio, weighted mean of sorted bins, harmonized to initial dataset scale) (arbitrary fluorescence ratio units); higher = stronger transcriptional activation
Conditions: beta-estradiol 1 µM; induction time 4 h
Classify as follows. Reported transcriptional activation domain activity greater than or equal to 30000: Satisfied. Reported transcriptional activation domain activity below: Not satisfied.

Input line: hey, is transcriptional activation domain activity for this one >= 30000? YCDAKPGHSLVFAGHAGELELYLDKSCDADSIMTRENLGSLNRFVRLLLLLAK
Output line: Satisfied

Input line: Kindly determine if transcriptional activation domain activity recorded for SKHATEAEKKKEEEKKSKSKEAPAKKEKKEKVKEEKPKEKVVAKIPEPAPSEP is above or exactly 30000.
Output line: Not satisfied

Input line: Threshold query (transcriptional activation domain activity >= 30000) on GSSQNTDQPHKSRKKRQREQDEDDTSTNKRSHRKSKKHKSSRKHKSSRKTAKT
Output line: Not satisfied

Input line: Hi, just wondering whether MFMDTLLFVFMHYGWTFFLNCCLWCFMISLCFWYVKFCLPIGCYILILCMWQG shows transcriptional activation domain activity of 30000 or higher.
Output line: Satisfied

Input line: Exam item: decide whether the reported transcriptional activation domain activity for VAAAAAETERAAEAERVAEAGRREEAEGTTDTGKTETGRREEADGTAGAAKAA is at least 30000.
Output line: Not satisfied

---

System: Saccharomyces cerevisiae
Experiment: transcriptional activation domain activity (GFP:mCherry ratio, weighted mean of sorted bins, harmonized to initial dataset scale) (arbitrary fluorescence ratio units); higher = stronger transcriptional activation
Settings: beta-estradiol 1 µM; induction time 4 h
assay_metric: transcriptional activation domain activity
Write the number on its own, no unit after it.

Input line: Sample ILNVTVRLNFLTFVLQYLMDTDYLSYYFTPLVSFWFLAIWIIMYAGHTWNKIP — what was its transcriptional activation domain activity?
Output line: 67300

Input line: Item RVPWSSAISKRLQTYHEMLQSFPFVWRMIKDVLGLKSCRYLLVLYLFCEAVTS has what recorded transcriptional activation domain activity?
Output line: 62000

Input line: transcriptional activation domain activity lookup needed for IAIQVMNRVLFFKAFKNVTRYSCAYKLCLVFFFFYIVINGKNFYVIEYAHLSM , thanks.
Output line: 49300

Input line: Param item = MLLFIFWRLLYFFILGSLLRAQSRRKWLVRWCREHGFGPNPRRPRSGWVTFWV ; retrieve measured transcriptional activation domain activity.
Output line: 59600

---

What transcriptional activation domain activity was measured for each of the following?
Test system: Saccharomyces cerevisiae
Experiment: transcriptional activation domain activity (GFP:mCherry ratio, weighted mean of sorted bins, harmonized to initial dataset scale) (arbitrary fluorescence ratio units); higher = stronger transcriptional activation
Details: beta-estradiol 1 µM; induction time 4 h
Write the number on its own, no unit after it.

Input line: Query transcriptional activation domain activity on Saccharomyces cerevisiae for WIIPTPFGSHAFHPVDGYFQSVPYHLFIFIFPLHRVLYLTLFVLVNFWSIFIH
Output line: 61100

Input line: Please tell me: transcriptional activation domain activity of MCINMYFWKVFFMWTLIFFGLSYIPLSFPGMSYFCLLQHKVFLIILGNHFLRF , system Saccharomyces cerevisiae?
Output line: 56800

Input line: Missing value: transcriptional activation domain activity, Saccharomyces cerevisiae, entry DLDFRGIFMTDWYANYDYMVSDLIMPGFWRVPVLPKWYNWTGFFASWPLIGQF . Fill in?
Output line: 68800

Input line: Write down the reported transcriptional activation domain activity of LPTKYRVLDGLFQALAVRAGGFYVVTIANLRQGLLYVSAYPVTLTMRNTNVYE , test system: Saccharomyces cerevisiae.
Output line: 48900

Input line: Record lookup: for Saccharomyces cerevisiae, what transcriptional activation domain activity belongs to AATAEPEKKKGSKKDKAAAAPAPAAAPAKDAKSAKKAKKSAAPPPPPPAASSS ?
Output line: 15600

Input line: For the record RLPNNANSTTGLNDNDYNLDDTNNDNTNSMQSILEDFVSSEEALKFMPDAGRD , what value of transcriptional activation domain activity is listed for Saccharomyces cerevisiae?
Output line: 30400

Input line: Reported transcriptional activation domain activity for Saccharomyces cerevisiae, given KEDILLTLYENSTFGGLWSKLSDCLTVIRQRGNMLNIATILLPLIEALMVVCK ?
Output line: 54700

Input line: transcriptional activation domain activity of ISGQEHKDMCRILLGLIIDLPLPSGQVTSRIIRLVHALLDFLYLAQLPSQTTN on Saccharomyces cerevisiae?
Output line: 61400

Input line: Hello, I am looking for reported transcriptional activation domain activity with Saccharomyces cerevisiae for ASTKGRADVRGRSGKAAPQKGRGKARVGSKRAPHFRGGGIAFGPRPRDFSTEL . Could you help?
Output line: 28300

Input line: Please provide the recorded transcriptional activation domain activity for TLAGMIRENDEEQKSRGITRIKELEIKCLIEGAYGINRPMHLFETAVVIAGGV , tested on Saccharomyces cerevisiae.
Output line: 54500

Input line: Hi! What's the reported transcriptional activation domain activity for ALLKLLVMMLWEIEFYEPCFGALRLMDYITSEICPDSNLSAEATLLRIRTLIR on Saccharomyces cerevisiae?
Output line: 58200

Input line: Find transcriptional activation domain activity (Saccharomyces cerevisiae) for the entry MPMLLIIFPLLYFLYCIHNLFHIISHYYEVFNTFYIVILHLSFLFYLHFILFH
Output line: 69500

Input line: For Saccharomyces cerevisiae, provide transcriptional activation domain activity of MLQRFWYLALLAKRRTDLFSFKLSCLELLCFLPISMVVCHIWVIMGPLFFILF please.
Output line: 50800

Input line: Provide value of transcriptional activation domain activity for this record tested with Saccharomyces cerevisiae: MDDDIAMFDSLATTQPIDIAASNQQNGEIAQLWDFNVDQFNMTPSNSSGSATI
Output line: 76100

Input line: Return transcriptional activation domain activity measured with Saccharomyces cerevisiae given this sequence: MCFVVFIRWELLMISHCAVVYLLLLFLLFIVHYFLIEGFLFLYVLVRAFAFVL
Output line: 41900

Input line: Item QGTNHAYHEHILNTDMDLKILEDLCNISSLYEVPFGKHINHHDHNNAGNGCDG with Saccharomyces cerevisiae - transcriptional activation domain activity?
Output line: 83400

Input line: Look up transcriptional activation domain activity with Saccharomyces cerevisiae for this sequence: MRLGQLYSLFLFPSFLLSFFIMPLVSVTKYTPGVDNIYFFFFLFFFFFLFFFL
Output line: 36900

Input line: # get_value(readout= transcriptional activation domain activity, system= Saccharomyces cerevisiae) for RNVIRGCRKPLSSRYVFLMSVTRLVIPLYFYVCPYNIIALKPSKWIWLLVLYV
Output line: 62600

Input line: # returns recorded transcriptional activation domain activity (system: Saccharomyces cerevisiae) for LLFFFFFFLLLFFLLFLLLRSRPPSSFSPASIVWPLRAGFGIPLPLFLLFFLP
Output line: 20800

Input line: Record TNPAFANSSLPPIHSSFSTLSNPPSIFCVLPPFLPSFPLSFPFFFSFPFFLFL : what is its transcriptional activation domain activity with Saccharomyces cerevisiae?
Output line: 52500

Input line: Please tell me: transcriptional activation domain activity of TSSTNHFYGTVVKTKDLLPIYLDVVLWMLKRDLLVTLHLRVRIVVPAELKERA , system Saccharomyces cerevisiae?
Output line: 59600

Input line: Field: transcriptional activation domain activity (Saccharomyces cerevisiae). Entry: HVFPILLRLVGGYALLRKLIDSIEEAYLAYHMVASQTYFMSTSLTFCAILARM
Output line: 71200

Input line: // map WIVTHSHFIPTAEAGTTGEGMGEGEDRDPDTVRLAVRSLTICMRSANIAMLVG to recorded transcriptional activation domain activity (system: Saccharomyces cerevisiae)
Output line: 53600

Input line: API: value(readout=transcriptional activation domain activity, system=Saccharomyces cerevisiae) for record MAFCSIPFYSPPPPQFRFISTFSPFPRFIIGPLFHPLLARKLFDFLLIFIVSF
Output line: 62700

Input line: Observed transcriptional activation domain activity on Saccharomyces cerevisiae for HLNGESSPQLVPHSHHQPHSDTDEEDWESIGAASLRNNSLAPNIDSVASSTNG , please.
Output line: 45100

Input line: What reported transcriptional activation domain activity corresponds to MFSYFVFLLTIVTFFHLIISFCFVFRCHYIVLLLLLQNVFIFCLFAHHCYIHV on Saccharomyces cerevisiae?
Output line: 31400

Input line: GET /values?readout=transcriptional activation domain activity&system=Saccharomyces cerevisiae&item= KGKGKGKEGKGKGRREGEGGRGTEGREMGEKEREEEREEEREGKEGRREGGKE
Output line: 24100

Input line: Short answer please: transcriptional activation domain activity, Saccharomyces cerevisiae, entry AQLTLRAIVSSKEAGVIIGKGGKNVADLRDETGVKAGVSKVVQGVHDRVLTIT
Output line: 29600

Input line: // lookup transcriptional activation domain activity | system=Saccharomyces cerevisiae | key= MVCFKRSGLSLVFFFFFFFFFLLLVFFLFFFSLLLPIIISLVVRADLLMVHPH
Output line: 31200

Input line: Request: transcriptional activation domain activity, test system Saccharomyces cerevisiae, entry LLVRIIGRCGFLGASFQVALLSDYISIMTLHIYWFYAVAARIYFWQLSILHSL
Output line: 43100

Input line: # query: transcriptional activation domain activity | item GAVNLSSNERVVFSCRGEVLESKFGRSSKLSPRTFVVTTSKFYIVVQMLVSGQ | system: Saccharomyces cerevisiae
Output line: 37800

Input line: Recorded transcriptional activation domain activity for HYNALNGRWKVFRNEKDEDSIRVVAGMVWWGKILVVTCVEKGVFQIRLFSSIN with Saccharomyces cerevisiae, please?
Output line: 7550

Input line: transcriptional activation domain activity of MNLYLLCRYMTLVYCFVYMLGNNITKFDCEVWVKALLSFGYIASILSSSLIVL on Saccharomyces cerevisiae?
Output line: 61200

Input line: Report transcriptional activation domain activity for KVKKEKKEKKHRRHHHRHRDGSDDERSHKRRRRDDDKRGHRSSRSEHRRRSDS tested on Saccharomyces cerevisiae.
Output line: 29800

Input line: Give Saccharomyces cerevisiae transcriptional activation domain activity for VGLAIYCVSQHLMIPSATELICMYPVVNSTIGLITYYYLIFSFLFGIMIITYC
Output line: 64600

Input line: So what transcriptional activation domain activity did LNWYWLASTMYFLYGESVIYYFKHIVLVDKVLLPLATHHRFISFLLYLMGFVF get with Saccharomyces cerevisiae?
Output line: 93000

Input line: API: value(readout=transcriptional activation domain activity, system=Saccharomyces cerevisiae) for record IRPSTPAATRSTSPPRPRPPRASRSPRPRRTRGRRSSKLRRKATSPPPATAPS
Output line: 38200

Input line: Lab note: need transcriptional activation domain activity with Saccharomyces cerevisiae for entry QKLSWIDNSGFRWLIMPFIWSSFFIQWLAVFFEICIVILQLRVIAWWLGWLVC , please look it up.
Output line: 60700

Input line: Identify the measured transcriptional activation domain activity of SAEHQTEAYESDGGRQCVRLLLTSYCSPILIVALHPVLPGRFLCVVKLATQKS for Saccharomyces cerevisiae.
Output line: 39900
